Test system p38α kinase (Homo sapiens, UniProt Q16539), IC50 listed for each of the compounds.
ASSAY READOUT: IC50 (nM)

Worked cases, IC50 given:
SMILES STR: CCNC(=O)C(=O)c1cn(COC)c2nc(OC)c(C(=O)N3C[C@H](C)N(Cc4ccc(F)cc4)C[C@H]3C)cc12
ASSAY READOUT: IC50
MEASURED NUMBER: 60
//
SMILES STR: CNC(=O)C(=O)c1cn(COC)c2nc(OC)c(C(=O)N3C[C@H](C)N(Cc4ccc(F)cc4)C[C@H]3C)cc12
ASSAY READOUT: IC50
MEASURED NUMBER: 50
//
SMILES STR: CCOc1nc2[nH]cc(C(=O)C(N)=O)c2cc1C(=O)N1CCC(Cc2ccc(F)cc2)CC1
ASSAY READOUT: IC50
MEASURED NUMBER: 67
//
SMILES STR: COc1nc2c(cc1C(=O)N1C[C@H](C)N(Cc3ccc(F)cc3)C[C@H]1C)c(C(=O)C(=O)N(C)OC)cn2C
ASSAY READOUT: IC50
MEASURED NUMBER: 20
//
SMILES STR: CCOc1nc2[nH]cc(C(=O)C(=O)N3CCCC3)c2cc1C(=O)N1C[C@H](C)N(Cc2ccc(F)cc2)C[C@H]1C
ASSAY READOUT: IC50
MEASURED NUMBER: 30

A. CCNC(=O)C(=O)c1c[nH]c2nc(C)c(C(=O)N3C[C@H](C)N(Cc4ccc(F)cc4)C[C@H]3C)cc12
B. COc1nc2[nH]cc(C(=O)C(=O)O)c2cc1C(=O)N1CCC(Cc2ccc(F)cc2)CC1
C. CCOc1nc2[nH]cc(C(=O)C(=O)NC)c2cc1C(=O)N1C[C@H](C)N(Cc2ccc(F)cc2)C[C@H]1C
Order the records so the highest IC50 appears first and the lowest last. Dear reader, please state the labels in the requested order.
A, C, B

a. CNC(=O)C(=O)c1c[nH]c2ccc(C(=O)N3C[C@H](C)N(Cc4ccc(F)cc4)C[C@H]3C)nc12
b. CNC(=O)C(=O)c1c[nH]c2nc(C)c(C(=O)N3C[C@H](C)N(Cc4ccc(F)cc4)C[C@H]3C)cc12
Lab note: check whether a or b has the lower measured IC50. Return value: the label identifying the chosen record.
b
